Biological target: Fuc(a1-2)Gal(b1-4)GlcNAc(b1-3)Gal(b1-4)GlcNAc
Assay: glycan array binding signal (z-score within array); higher = stronger binding
Details: glycan notation: IUPAC condensed, linker removed
The sample as a whole holds a higher share of the strongest signals than the screen did.
value type: glycan array binding signal (z-score)
Response field accepts a number only; no unit should be typed.

| binder | observed |
| --- | --- |
| LcH (Lens culinaris), P02870 (protein) TETTSFSITKFSPDQQNLIFQGDGYTGKEGLTLTKVSKETGGRALYSTPIHIWDRDTVNVANFVTNGSQVFRESPNGYNVADGFTFFIAPVDTKPQTGGGYLGVFYNGKEYDKTSQTVAVEFDTFYNAAWDPSNKERHIGIDVNSIKSVNTKSWNLQNGVTSYTLNEVVPLKDVVPEWVRIGFSATTGAEFAAQEVHSWSFNSQLGHTSKS | -0.141 |

(Q) Name the reported glycan array binding signal (z-score) value associated with the binder Tamarinin (protein) CDDSARAGNIVVYWGQGGSDNSEGSLKEACKSGHYNMIVLQQLIVYDDGRDPDLNLGAHCSDCTKLEEQIKYCQNKDIKILLQIGQVVPTQEDVKDVTKNLSEYLLKNFFSGKSGPLGEVYLNGIDIASVPEGNNLKFDELVEALNDSSTERRIYLSASPLCVYPDYYLNKAIQTEKLDFLFVQFFYQNPCIYTEGNPENLFEAMKTWTKNVPESMIFMALPATPNLDGYIPPRVLNKEILPAVSEASNFAGVMIFDRYFDRFRKYSSKIK
(A) -0.361

(Q) Name the reported glycan array binding signal (z-score) value associated with the binder PNA (Arachis hypogaea), P02872 (protein) MKPFCVFLTFFLLLAASSKKVDSAETVSFNFNSFSEGNPAINFQGDVTVLSNGNIQLTNLNKVNSVGRVLYAMPVRIWSSATGNVASFLTSFSFEMKDIKDYDPADGIIFFIAPEDTQIPAGSIGGGTLGVSDTKGAGHFVGVEFDTYSNSEYNDPPTDHVGIDVNSVDSVKTVPWNSVSGAVVKVTVIYDSSTKTLSVAVTNDNGDITTIAQVVDLKAKLPERVKFGFSASGSLGGRQIHLIRSWSFTSTLITTTRRSIDNNEKKIMNMASA
(A) -0.144
